- Tested on: Setaria faberi (SETFA)
- method: Post-emergence herbicidal glasshouse test on Setaria faberi
- Format: in vivo
- settings: post-emergence application, Setaria faberi, damage score 1-5
POST Application SETFA for assorted molecules

Cc1ccc(Cl)cc1-n1c(-c2cccc(F)c2)ncc(-c2cnn(C)c(=O)c2O)c1=O [Compound 10.004]
3 (3=40-59% damage)

Ask: Can you look up the measured POST Application SETFA of CCCCn1c(C2CC2)ncc(-c2cnn(C)c(=O)c2O)c1=O [Compound 10.005] for me?
Result: 5 (5=80-100% damage)

Ask: Likewise for CCCn1c(-c2cccc(Cl)c2)ncc(-c2cnn(C)c(=O)c2O)c1=O [Compound 10.002] ?
Result: 1 (1=0-19% damage)

Ask: Likewise for Cn1ncc(-c2cnc(-c3cccc(F)c3)n(C3CCCCC3)c2=O)c(O)c1=O [Compound 10.003] ?
Result: 4 (4=60-79% damage)

====

- Tested on: Setaria faberi (SETFA)
- method: Post-emergence herbicidal glasshouse test on Setaria faberi
- Format: in vivo
- settings: post-emergence; 1000 g/h; evaluated after 13 days
reported-metric: POST Application SETFA herbicidal damage (five point scale)

Known results for molecules:
COc1ccc(Cl)c(-c2cnn(C)c(=O)c2O)c1
1 (1=0-19% damage)
C=C(C)Cn1cccc(-c2cnn(C)c(=O)c2O)c1=O
2 (2=20-39% damage)
Cn1ncc(-n2ccc(C(F)(F)F)c(-c3cccc(OC(F)(F)F)c3)c2=O)c(O)c1=O
4 (4=60-79% damage)
Cn1ncc(-c2ccc(C(F)(F)F)n(-c3cccc(C(F)(F)F)n3)c2=O)c(O)c1=O
4 (4=60-79% damage)
Cc1c(-c2c(C(C)C)nn(C)c(=O)c2O)ccc(S(C)(=O)=O)c1C1=NOCC1
5 (5=80-100% damage)
COCc1nc(C(F)(F)F)ccc1-c1cnn(C)c(=O)c1O
5 (5=80-100% damage)
CCC(C)n1ncc(-c2ccc(S(C)(=O)=O)c(C3=NOCC3)c2C)c(O)c1=O (stereo not drawn)
5 (5=80-100% damage)
Cn1ncc(-c2ccc(Cl)c(Cl)c2Cl)c(O)c1=O
1 (1=0-19% damage)
Cn1ncc(-c2ccc(C(F)(F)F)cc2C(F)(F)F)c(O)c1=O
1 (1=0-19% damage)
Cn1ncc(-n2ccc(C(F)(F)F)c(-c3ccccc3)c2=O)c(O)c1=O
5 (5=80-100% damage)

Ask: Can you look up the measured POST Application SETFA herbicidal damage (five point scale) of "C=CCn1c(C(F)(F)F)ccc(-c2cnn(C)c(=O)c2O)c1=O" for me?
Result: 5 (5=80-100% damage)

Ask: Likewise for "Cn1ncc(-c2ccc(Cl)c(F)c2Cl)c(O)c1=O" ?
Result: 1 (1=0-19% damage)

Ask: Likewise for "CC(C)S(=O)(=O)c1ccccc1-c1cnn(C)c(=O)c1O" ?
Result: 5 (5=80-100% damage)

Ask: Likewise for "Cn1ncc(-c2ccc(S(C)(=O)=O)c(C3=NOCC3)c2Cl)c(O)c1=O" ?
Result: 5 (5=80-100% damage)

Ask: Likewise for "Cc1nc(C(F)(F)F)ccc1-c1cnn(C)c(=O)c1O" ?
Result: 4 (4=60-79% damage)

====

- Tested on: Ipomoea hederacea (IPOHE)
- method: Pre-emergence herbicidal glasshouse test on Ipomoea hederacea
- Type: in vivo
- settings: pre-emergence; 1000 g/h; evaluated after 13 days
reported-metric: PRE Application IPOHE herbicidal damage (five point scale)

Known results for compounds:
Cc1cc(C)c2cc(-c3cnn(C)c(=O)c3O)c(C(F)(F)F)nc2n1
3 (3=40-59% damage)
Cn1ncc(-c2c(Cl)cccc2Cl)c(O)c1=O
1 (1=0-19% damage)
COCn1ncc(-c2ccc(F)cc2S(C)(=O)=O)c(O)c1=O
5 (5=80-100% damage)
Cn1ncc(-c2ccc(Cl)c(Cl)c2Cl)c(O)c1=O
1 (1=0-19% damage)
CC(C)Oc1nn(C)c(=O)c(O)c1-c1ccc(C(F)(F)F)cc1S(C)(=O)=O
4 (4=60-79% damage)
Cc1c(-c2c(C(C)C)nn(C)c(=O)c2O)ccc(S(C)(=O)=O)c1C1=NOCC1
4 (4=60-79% damage)
COc1ccc(Cn2ncc(-c3ccc(S(C)(=O)=O)c(C4=NOCC4)c3C)c(O)c2=O)cc1
1 (1=0-19% damage)
CCC(C)n1ncc(-c2ccc(S(C)(=O)=O)c(C3=NOCC3)c2C)c(O)c1=O (centres unmarked)
3 (3=40-59% damage)
COc1ccc(-c2cnn(C)c(=O)c2O)c(Cl)c1
1 (1=0-19% damage)
Cn1nc(O)c(-c2ccc(C(F)(F)F)cc2S(C)(=O)=O)c(O)c1=O
3 (3=40-59% damage)

Ask: Can you look up the measured PRE Application IPOHE herbicidal damage (five point scale) of "CN(C)c1c(Cl)ccc(-c2cnn(C)c(=O)c2O)c1F" for me?
Result: 1 (1=0-19% damage)

====

PRE Application IPOHE herbicidal damage (five point scale) for assorted compounds
- Test system: Ipomoea hederacea (IPOHE)
- method: Pre-emergence herbicidal glasshouse test on Ipomoea hederacea
- Format: in vivo
- settings: pre-emergence; 1000 g/h; evaluated after 13 days

Known results for compounds:
CCS(=O)(=O)c1nc(C(F)(F)F)ccc1-c1cnn(C)c(=O)c1O [Compound 1.135]
5 (5=80-100% damage)
Cn1ncc(-n2ccc(C(F)(F)F)c(-c3cccc(C#N)c3)c2=O)c(O)c1=O [Compound 7.019]
2 (2=20-39% damage)
CC(=O)Oc1c(-c2ccc(C(F)(F)F)cc2S(C)(=O)=O)cnn(C)c1=O [Compound 3.001]
5 (5=80-100% damage)

Ask: Can you look up the measured PRE Application IPOHE herbicidal damage (five point scale) of CSc1ccc(-c2c(C(F)(F)F)ccn(-c3cnn(C)c(=O)c3O)c2=O)cc1 [Compound 7.036] for me?
Result: 4 (4=60-79% damage)

====

- Tested on: Amaranthus retoflexus (AMARE)
- method: Pre-emergence herbicidal glasshouse test on Amaranthus retoflexus
- Type: in vivo
- settings: pre-emergence; 1000 g/h; evaluated after 13 days
PRE Application AMARE herbicidal damage (five point scale) for assorted molecules

Known results for molecules:
Cc1c(-c2cnn(CC3CC3)c(=O)c2O)ccc(S(C)(=O)=O)c1C1=NOCC1 [Compound 1.120]
5 (5=80-100% damage)
Cn1ncc(-n2ccc(C(F)(F)F)c(-c3ccc(C(F)(F)F)cc3)c2=O)c(O)c1=O [Compound 7.035]
5 (5=80-100% damage)
CCn1ncc(-c2ccc(C(F)(F)F)cc2S(C)(=O)=O)c(O)c1=O [Compound 2.016]
5 (5=80-100% damage)
Cn1ncc(-n2ccc(C(F)(F)F)c(-c3ccc(C#N)cc3)c2=O)c(O)c1=O [Compound 7.031]
5 (5=80-100% damage)
Cn1ncc(-c2ccc(F)cc2S(C)(=O)=O)c(O)c1=O [Compound 1.058]
5 (5=80-100% damage)
COc1cccn(-c2cnn(C)c(=O)c2O)c1=O [Compound 1.070]
1 (1=0-19% damage)
Cn1ncc(-c2ccc(S(C)(=O)=O)c(Cl)c2Cl)c(O)c1=O [Compound 1.050]
5 (5=80-100% damage)
Cn1ncc(-c2ccc(S(C)(=O)=O)c(COCC(F)(F)F)c2Cl)c(O)c1=O [Compound 1.049]
5 (5=80-100% damage)

Ask: Can you look up the measured PRE Application AMARE herbicidal damage (five point scale) of CC(C)n1ncc(-c2c(Cl)cccc2Cl)c(O)c1=O [Compound 1.016] for me?
Result: 1 (1=0-19% damage)

Ask: Likewise for C=C(C)Cn1cccc(-c2cnn(C)c(=O)c2O)c1=O [Compound 9.007] ?
Result: 1 (1=0-19% damage)

Ask: Likewise for COc1nc(C(F)(F)F)ccc1-c1cnn(C)c(=O)c1O [Compound 4.005] ?
Result: 5 (5=80-100% damage)

====

- Test system: Setaria faberi (SETFA)
- method: Post-emergence herbicidal glasshouse test on Setaria faberi
- Type: in vivo
- settings: post-emergence; 1000 g/h; evaluated after 13 days
reported-metric: POST Application SETFA herbicidal damage (five point scale)

Known results for compounds:
Cn1ncc(-c2cccn(Cc3ccccc3)c2=O)c(O)c1=O
1 (1=0-19% damage)
COCCn1cccc(-c2cnn(C)c(=O)c2O)c1=O
3 (3=40-59% damage)
Cc1c(-c2cnn(C3CC3)c(=O)c2O)ccc(S(C)(=O)=O)c1C1=NOCC1
5 (5=80-100% damage)
COCn1ncc(-c2ccccc2[S+](C)[O-])c(O)c1=O (stereo not drawn)
5 (5=80-100% damage)
C#Cn1ncc(-c2ccc(Cl)cc2S(C)(=O)=O)c(O)c1=O
5 (5=80-100% damage)
Cn1ncc(-n2ccc(C(F)(F)F)c(N3CCOCC3)c2=O)c(O)c1=O
5 (5=80-100% damage)
Cc1cc(Cl)ccc1-c1c(C(F)(F)F)ccn(-c2cnn(C)c(=O)c2O)c1=O
3 (3=40-59% damage)
Cc1cccn(-c2cnn(C)c(=O)c2O)c1=O
4 (4=60-79% damage)

Ask: Can you look up the measured POST Application SETFA herbicidal damage (five point scale) of "CCS(=O)(=O)c1ccccc1-c1cnn(C)c(=O)c1O" for me?
Result: 5 (5=80-100% damage)

Ask: Likewise for "Cn1ncc(-c2ccc(C(F)(F)F)cc2S(=O)(=O)N2CCOCC2)c(O)c1=O" ?
Result: 1 (1=0-19% damage)

Ask: Likewise for "Cc1c(Cl)ccc(-c2cnn(C)c(=O)c2O)c1F" ?
Result: 1 (1=0-19% damage)

Ask: Likewise for "Cn1ncc(-c2ccc(C(F)(F)F)nc2O)c(O)c1=O" ?
Result: 1 (1=0-19% damage)
